Molecular target: Sodium-dependent dopamine transporter (Homo sapiens, UniProt Q01959)
Sequence (Q01959 whole entry): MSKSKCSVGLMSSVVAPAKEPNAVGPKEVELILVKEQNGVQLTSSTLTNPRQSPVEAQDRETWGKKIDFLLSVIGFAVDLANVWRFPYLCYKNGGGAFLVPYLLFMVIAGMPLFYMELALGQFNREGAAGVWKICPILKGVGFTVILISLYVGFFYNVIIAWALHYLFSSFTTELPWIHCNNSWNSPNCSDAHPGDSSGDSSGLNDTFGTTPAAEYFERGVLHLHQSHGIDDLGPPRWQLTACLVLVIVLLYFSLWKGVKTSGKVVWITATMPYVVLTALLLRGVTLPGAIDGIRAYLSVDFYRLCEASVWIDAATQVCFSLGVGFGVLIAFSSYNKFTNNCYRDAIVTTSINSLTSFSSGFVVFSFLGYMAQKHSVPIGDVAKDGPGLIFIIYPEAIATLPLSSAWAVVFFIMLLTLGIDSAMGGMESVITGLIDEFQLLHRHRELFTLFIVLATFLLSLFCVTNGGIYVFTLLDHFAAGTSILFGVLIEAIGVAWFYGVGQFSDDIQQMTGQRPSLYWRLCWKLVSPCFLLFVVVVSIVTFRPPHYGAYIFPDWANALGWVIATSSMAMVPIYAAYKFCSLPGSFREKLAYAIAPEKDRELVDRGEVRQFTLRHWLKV
Assay: Inhibition of [3H]DA uptake in human DAT expressed in COS1 cell membrane
Type: functional, cell-based, COS-1
pKi: −log10 of the molar value.
Classify by measured pKi: YES if it is equal to or exceeds 5, NO if it is smaller.

COC(=O)C1=C(c2ccc(Cl)cc2)CCCCC1
YES
COC(=O)C1=C(c2ccc(Cl)cc2)CCCC1
YES
C/C=C/C1=C(c2ccc(Cl)c(Cl)c2)CCCC1
NO
COC(=O)C1=C(c2ccc3ccccc3c2)CCCC1
YES
COC(=O)C1=C(c2ccc(Cl)c(Cl)c2)CCC1
YES
COC(=O)C1=C(c2ccc(C(C)=O)cc2)CCC1
NO
COC(=O)C1=C(c2ccc(Cl)c(Cl)c2)CCCC1
YES
COC(=O)C1=C(c2ccc3ccccc3c2)CCC1
YES
COC(=O)C1=C(c2cccc(N)c2)CCC1
NO
COC(=O)C1=C(c2ccc(OC)cc2)CCC1
YES
COC(=O)C1=C(c2cccc(Cl)c2)CCC1
YES
COC(=O)C1=C(c2cccc(Cl)c2)CCCC1
NO
COC(=O)C1=C(c2ccc(-c3ccccc3)cc2)CCCCC1
YES
COC(=O)C1=C(c2ccc(Cl)c(Cl)c2)CCCCC1
YES
COC(=O)C1=C(c2ccc(Cl)cc2)CCC1
YES
COC(=O)[C@H]1[C@@H](c2ccc(I)cc2)C[C@H]2CC[C@@H]1N2C
YES
COC(=O)C1=C(c2cccc(Cl)c2)CCCCC1
YES

---

Target: Sodium-dependent noradrenaline transporter (Homo sapiens, UniProt P23975)
Sequence (P23975 whole entry): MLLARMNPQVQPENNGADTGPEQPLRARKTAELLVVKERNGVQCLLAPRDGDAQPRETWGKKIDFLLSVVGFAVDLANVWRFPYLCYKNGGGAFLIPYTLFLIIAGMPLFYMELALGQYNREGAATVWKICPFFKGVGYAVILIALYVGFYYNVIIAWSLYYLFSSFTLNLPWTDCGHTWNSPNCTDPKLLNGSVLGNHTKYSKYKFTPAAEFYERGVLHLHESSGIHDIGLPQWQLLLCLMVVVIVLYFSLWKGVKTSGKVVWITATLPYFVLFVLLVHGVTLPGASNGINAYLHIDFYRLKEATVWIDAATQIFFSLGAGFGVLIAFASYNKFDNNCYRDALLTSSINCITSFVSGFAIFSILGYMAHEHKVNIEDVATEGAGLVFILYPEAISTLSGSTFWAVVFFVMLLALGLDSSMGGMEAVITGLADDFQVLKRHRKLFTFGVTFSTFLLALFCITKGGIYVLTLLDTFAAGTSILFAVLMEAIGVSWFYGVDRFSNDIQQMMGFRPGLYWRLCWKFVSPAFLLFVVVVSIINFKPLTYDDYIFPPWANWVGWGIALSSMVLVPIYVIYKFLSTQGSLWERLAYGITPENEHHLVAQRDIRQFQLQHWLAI
Test: Displacement of [125I]RTI55 from human NET expressed in COS1 cell membrane
Type: cell membranes, COS-1
Recorded Ki, one value per entry.
readoutType: Ki (µM)

COC(=O)[C@@H]1CCCCC[C@@H]1c1ccc(C(C)(C)C)cc1
94
COC(=O)C1=C(c2ccc(Cl)cc2)CCCCC1
84
COC(=O)[C@@H]1CCCC[C@@H]1c1ccc(C(F)(F)F)cc1
439
COC(=O)[C@@H]1CCCC[C@@H]1c1cccc(C(F)(F)F)c1
991
COC(=O)C1=C(c2ccc(O)cc2)CCCC1
675
COC(=O)C1=C(c2ccc(-c3ccccc3)cc2)CCCCC1
13
COC(=O)C1=C(c2ccc(-c3ccccc3)cc2)CCCC1
215
C/C=C/C1=C(c2ccc(Cl)c(Cl)c2)CCCC1
255
COC(=O)[C@@H]1CN(C)CC[C@H]1c1ccc(I)cc1 (racemic)
2.3
COC(=O)C1=C(c2ccc(OC(F)(F)F)cc2)CCCC1
2540
COC(=O)C1=C(c2ccc(OC(F)(F)F)cc2)CCC1
2880
COC(=O)C1=C(c2cccc(N)c2)CCC1
1320

---

Target: UniProtKB P23975
Assay: Displacement of [125I]RTI55 from human NET expressed in COS1 cell membrane
Assay type: cell membranes, COS-1
pKi: −log10 of the molar value.
readoutType: pKi

COC(=O)[C@@H]1CCCC[C@@H]1c1ccc(OC(F)(F)F)cc1
3.14
COC(=O)C1=C(c2ccc(C(C)(C)C)cc2)CCCC1
2.96
COC(=O)C1=C(c2ccc3ccccc3c2)CCCC1
4.09
COC(=O)C1=C(c2cccc(Cl)c2)CCCC1
3.47
CCOC(=O)C1=C(c2cccc([N+](=O)[O-])c2)CCNC1
5.00
COC(=O)[C@@H]1CN(C)CC[C@@H]1c1ccccc1 (racemic)
4.45
COC(=O)C1=C(c2ccc(C(C)=O)cc2)CCC1
3.62
COC(=O)C1=C(c2ccc3ccccc3c2)CCCCC1
4.17
CCOC(=O)C1=C(c2ccc(Cl)c(Cl)c2)CCNC1
5.60
COC(=O)C1=C(c2ccc(Cl)c(Cl)c2)CCCC1
4.85
COC(=O)[C@@H]1CN(C)CC[C@@H]1c1ccc(Cl)c(Cl)c1 (stereo in doubt)
4.38
COC(=O)[C@@H]1CCCC[C@@H]1c1ccccc1
2.87
